Target: UniProt P49682
Sequence (P49682 whole entry): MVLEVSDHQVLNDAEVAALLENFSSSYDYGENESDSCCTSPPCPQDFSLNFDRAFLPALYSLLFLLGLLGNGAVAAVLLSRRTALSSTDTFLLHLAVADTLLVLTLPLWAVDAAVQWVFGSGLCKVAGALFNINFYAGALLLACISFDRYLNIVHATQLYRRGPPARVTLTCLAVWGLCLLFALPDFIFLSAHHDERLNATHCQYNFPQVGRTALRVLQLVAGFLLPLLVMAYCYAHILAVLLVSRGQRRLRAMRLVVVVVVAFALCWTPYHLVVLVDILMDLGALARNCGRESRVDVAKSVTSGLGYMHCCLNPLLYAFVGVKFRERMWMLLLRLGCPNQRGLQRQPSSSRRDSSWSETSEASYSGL
Assay: Displacement of radiolabeled CXCL11 from human CXCR3 expressed in CHO cells by scintillation proximity assay
Assay type: cell-based
# pIC50 listing for each entry below
For clarity, pIC50 is expressed as the negative log10 of concentration in mol/L.

| smi | metric | result-value |
| --- | --- | --- |
| CCN(CC)C(=O)[C@@H]1C=C2c3cccc4[nH]cc(c34)C[C@H]2N(C(=O)Nc2ccccc2)C1 | pIC50 | 7.29 |

Then there is this compound:
Short answer for CN1CCN(C(=O)[C@@H]2C=C3c4cccc5[nH]cc(c45)C[C@H]3N(C(=O)Nc3ccccc3)C2)CC1 : pIC50 was 6.88
